Each record here notes measured MICalone.
test system: C. neoformans H99; assay: Checkerboard titration assay; type: cell-based, Cryptococcus neoformans; settings: 30° C., 48 hours
Numbers only; they are read as mg/L.

Input line: Please look up its MICalone: OC(Cn1cncn1)(Cn1cncn1)c1ccc(F)cc1F [FLC, fluconazole]
Output line: 4

Input line: Please look up its MICalone: CC1=NN(c2ccc(C)c(C)c2)C(=O)/C1=N\Nc1cccc(-c2cccc(C(=O)O)c2)c1O [eltrombopag]
Output line: 0.25

Input line: Please look up its MICalone: C[C@@H]1[C@H](O)[C@@H](C)/C=C/C=C/C=C/C=C/C=C/C=C/C=C/[C@H](O[C@@H]2O[C@H](C)[C@@H](O)[C@H](N)[C@@H]2O)C[C@@H]2O[C@](O)(C[C@@H](O)C[C@@H](O)[C@H](O)CC[C@@H](O)C[C@@H](O)CC(=O)O[C@H]1C)C[C@H](O)[C@H]2C(=O)O [AMB, amphotericin B]
Output line: 1
